Recorded Density for the following compounds
# assay-procedure: density and max drug loading of antimicrobial agents considered for carrier particles
# Format: physicochemical
# test-parameters: Table 7
Lab book: enter the figure in g/mL, no units written.

Take a look at these entries with their results.
{"columns": ["compound", "readout-units", "Density"],
 "data": [
  ["NC[C@H]1O[C@H](O[C@H]2[C@H](O)[C@@H](O[C@H]3O[C@H](CO)[C@@H](O)[C@H](N)[C@H]3O)[C@H](N)C[C@@H]2N)[C@H](N)C[C@@H]1O [Tobramycin]", "g/mL", 1.5],
  ["C[C@@H](O)[C@H]1C(=O)N2C(C(=O)O)=C(S[C@@H]3CN[C@H](C(=O)Nc4cccc(C(=O)O)c4)C3)[C@H](C)[C@H]12 [Ertapenem]", "g/mL", 1.6]
]}

Consider the record given below.
Density recorded for this compound, CC(C)(O/N=C(\C(=O)N[C@@H]1C(=O)N2C(C(=O)[O-])=C(C[n+]3ccccc3)CS[C@H]12)c1csc(N)n1)C(=O)O [Ceftazidime] , is 1.6

The measured values listed here are drawn from patent US20250275988A1.
